This listing pairs molecules with measured pIC50.
biological target: Tb-labeled inactive PDGFRβ (Homo sapiens (Human), UniProt P09619); assay: PDGFRβ LanthaScreen Assay; conditions: read-out: PDGFR Lantha IC50
Sequence (P09619 33-1106): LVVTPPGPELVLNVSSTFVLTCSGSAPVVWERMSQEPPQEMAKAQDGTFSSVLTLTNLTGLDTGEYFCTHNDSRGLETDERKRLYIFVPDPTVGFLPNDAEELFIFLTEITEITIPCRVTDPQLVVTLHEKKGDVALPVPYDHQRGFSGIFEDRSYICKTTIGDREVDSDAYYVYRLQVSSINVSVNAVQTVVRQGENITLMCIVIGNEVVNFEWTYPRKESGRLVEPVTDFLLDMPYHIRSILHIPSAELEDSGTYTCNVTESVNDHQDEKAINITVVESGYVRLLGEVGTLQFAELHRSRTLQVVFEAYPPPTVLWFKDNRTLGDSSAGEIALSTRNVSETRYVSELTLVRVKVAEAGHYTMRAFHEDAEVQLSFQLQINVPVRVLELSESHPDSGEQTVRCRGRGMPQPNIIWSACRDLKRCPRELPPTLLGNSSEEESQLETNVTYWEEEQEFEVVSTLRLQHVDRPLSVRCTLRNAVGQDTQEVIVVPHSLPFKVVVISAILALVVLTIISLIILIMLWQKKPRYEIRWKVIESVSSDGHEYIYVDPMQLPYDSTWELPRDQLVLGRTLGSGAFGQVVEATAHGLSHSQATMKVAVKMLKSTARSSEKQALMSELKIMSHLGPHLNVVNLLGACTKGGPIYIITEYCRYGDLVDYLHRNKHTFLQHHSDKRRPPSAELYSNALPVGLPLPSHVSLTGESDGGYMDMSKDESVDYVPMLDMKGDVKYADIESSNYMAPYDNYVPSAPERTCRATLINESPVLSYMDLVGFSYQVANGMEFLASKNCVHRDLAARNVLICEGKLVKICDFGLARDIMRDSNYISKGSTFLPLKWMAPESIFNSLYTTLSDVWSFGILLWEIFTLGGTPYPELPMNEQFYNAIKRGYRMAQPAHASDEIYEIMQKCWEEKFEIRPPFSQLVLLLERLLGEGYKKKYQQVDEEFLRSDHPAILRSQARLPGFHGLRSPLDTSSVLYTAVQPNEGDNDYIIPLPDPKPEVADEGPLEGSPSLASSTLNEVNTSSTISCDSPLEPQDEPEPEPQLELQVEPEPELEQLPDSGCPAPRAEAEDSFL
When answering, recall that pIC50 equals minus log10 of the concentration in mol/L, and write that number alone.

Here are 5 molecules together with their reported answers.
COCCn1cc(-c2cn3ncc(C(=O)Nc4cc(NC(=O)C[C@H]5CCCN5C(C)C)cnc4C)c3s2)cn1 :: 7.79
Cc1ncc(NC(=O)CC2CNC2)cc1NC(=O)c1cnn2cc(-c3cnn4c3CCC4)sc12 :: 6.32
Cc1ncc(NC(=O)CN2CCOC[C@H]2C)cc1NC(=O)c1cnn2cc(-c3cnn(C)c3)sc12 :: 7.85
Cc1ncc(NC(=O)CN2CC(C)(C)C2)cc1NC(=O)c1cnn2cc(-c3cnn(C)c3)sc12 :: 8.07
Cc1ncc(NC(=O)CN2C[C@H](C)O[C@@H](C)C2)cc1NC(=O)c1cnn2cc(-c3c[nH]nc3C)sc12 (relative stereo) :: 8.52

-- ask Entry CC[C@@H]1COCCN1CC(=O)Nc1cnc(C)c(NC(=O)c2cnn3cc(-c4cnn(C)c4)sc23)c1 : reported pIC50 = ?
-- reply 8.33

-- ask Entry Cc1ncc(C(=O)NCCN2CCCC23CC3)cc1NC(=O)c1cnn2cc(-c3cnn(C)c3)sc12 : reported pIC50 = ?
-- reply 7.94

-- ask Entry Cc1ncc(NC(=O)CN2C[C@@H](C)O[C@@H](C)C2)cc1NC(=O)c1cnn2cc(-c3cnn(C)c3)sc12 : reported pIC50 = ?
-- reply 8.57

-- ask Entry Cc1ncc(NC(=O)CN2CC(C)(C)C2)cc1NC(=O)c1cnn2cc(-c3ccc(CO)o3)sc12 : reported pIC50 = ?
-- reply 8.66

-- ask Entry Cc1ncc(NC(=O)CN2CC(C)(C)C2)cc1NC(=O)c1cnn2cc(-c3cnn(CS(C)(=O)=O)c3)sc12 : reported pIC50 = ?
-- reply 8.06

----------
target: His6-TEV-PDGFRβ (557-1016) (Homo sapiens (Human))
Sequence (P09619 557-1016): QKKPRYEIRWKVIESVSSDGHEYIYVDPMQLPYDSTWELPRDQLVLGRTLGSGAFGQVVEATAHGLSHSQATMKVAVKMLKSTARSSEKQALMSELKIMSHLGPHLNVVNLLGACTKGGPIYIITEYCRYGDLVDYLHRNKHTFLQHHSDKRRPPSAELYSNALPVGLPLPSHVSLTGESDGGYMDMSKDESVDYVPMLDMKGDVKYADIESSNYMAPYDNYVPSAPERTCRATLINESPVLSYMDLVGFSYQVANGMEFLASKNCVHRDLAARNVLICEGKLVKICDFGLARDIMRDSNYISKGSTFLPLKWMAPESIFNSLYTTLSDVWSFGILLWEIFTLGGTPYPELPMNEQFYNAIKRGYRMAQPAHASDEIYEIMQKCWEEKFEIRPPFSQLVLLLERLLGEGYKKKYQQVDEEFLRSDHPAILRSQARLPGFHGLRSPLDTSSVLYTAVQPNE
Mark Fulfilled only when IC50 stays strictly below 0.6 nM. Values equal to the cut-off are Not fulfilled.

Solved cases below.
Cc1ncc(C(=O)NCCNCCO)cc1NC(=O)c1cnn2cc(-c3cnn(C)c3)sc12 :: Not fulfilled
Cc1ncc(NC(=O)CN2CC(C)C2)cc1NC(=O)c1cnn2cc(-c3cnn4c3OCCC4)sc12 :: Fulfilled

-- ask Regarding COCCn1cc(-c2cn3ncc(C(=O)Nc4cc(NC(=O)CN5CCC(C6CC6)C5)cnc4C)c3s2)cn1 (stereo not shown) , kindly confirm whether its IC50 is beneath 0.6 nM.
-- reply Fulfilled

-- ask Regarding Cc1ncc(NS(=O)(=O)CCN2CC3CCC2CC3)cc1NC(=O)c1cnn2cc(-c3cnn(C)c3)sc12 , kindly confirm whether its IC50 is beneath 0.6 nM.
-- reply Not fulfilled

-- ask Regarding COCCn1cc(-c2cn3ncc(C(=O)Nc4cc(NC(=O)C5(CN6CCC[C@@H]6C)CC5)cnc4C)c3s2)cn1 , kindly confirm whether its IC50 is beneath 0.6 nM.
-- reply Not fulfilled

-- ask Regarding Cc1ncc(NC(=O)CN2CC(C)(C)C2)cc1NC(=O)c1cnn2cc(-c3cnn(CC#N)c3)sc12 , kindly confirm whether its IC50 is beneath 0.6 nM.
-- reply Not fulfilled
